The measurements presented in this section are drawn from patent US20230203098A1.

target: transferrin receptor (hTfR) (Homo sapiens, UniProt P02786); assay: Intermolecular interaction evaluation test between transferrin receptor (hTfR) and peptide by surface plasmon resonance (SPR); type: binding; settings: surface plasmon resonance, hTfR; read-out: KD value for hTfR by SPR (class symbol)
Sequence (P02786 whole entry): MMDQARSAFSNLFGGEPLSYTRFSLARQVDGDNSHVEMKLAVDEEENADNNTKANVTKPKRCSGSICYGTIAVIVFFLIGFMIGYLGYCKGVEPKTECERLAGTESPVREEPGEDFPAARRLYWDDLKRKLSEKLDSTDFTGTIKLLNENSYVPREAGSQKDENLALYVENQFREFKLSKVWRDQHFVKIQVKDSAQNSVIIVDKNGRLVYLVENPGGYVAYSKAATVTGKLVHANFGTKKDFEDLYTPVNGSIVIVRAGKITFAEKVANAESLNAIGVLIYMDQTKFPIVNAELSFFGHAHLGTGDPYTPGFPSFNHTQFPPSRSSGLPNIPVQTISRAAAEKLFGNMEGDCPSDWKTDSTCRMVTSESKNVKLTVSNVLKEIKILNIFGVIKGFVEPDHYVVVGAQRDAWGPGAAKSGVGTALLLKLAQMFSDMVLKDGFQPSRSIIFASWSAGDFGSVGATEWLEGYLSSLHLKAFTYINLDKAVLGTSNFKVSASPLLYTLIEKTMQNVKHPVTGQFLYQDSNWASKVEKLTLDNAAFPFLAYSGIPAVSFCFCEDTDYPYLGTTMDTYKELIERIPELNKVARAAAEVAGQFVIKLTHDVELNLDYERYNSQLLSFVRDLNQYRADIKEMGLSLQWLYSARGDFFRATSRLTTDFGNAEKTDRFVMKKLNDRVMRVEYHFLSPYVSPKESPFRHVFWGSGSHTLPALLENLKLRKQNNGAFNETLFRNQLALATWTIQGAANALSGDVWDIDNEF
pKd: −log10 of the molar value.
endpointLabel: pKd

INSERT INTO measurements (molecule, targetsystem, obsvalue) VALUES
  ('CC[C@H](C)[C@@H]1NC(=O)[C@H](Cc2ccc(O)cc2)NC(=O)[C@H](Cc2ccc(O)cc2)NC(=O)[C@H](CC(N)=O)NC(=O)[C@H](Cc2c[nH]c3ccccc23)NC(=O)[C@H](C(C)C)NC(=O)[C@H](Cc2ccccc2)NC(=O)[C@H](C(C)C)NC(=O)[C@H](C)NC(=O)CCC[C@@H](C(N)=O)NC(=O)[C@H](Cc2ccc(O)cc2)N(C)C(=O)[C@H](Cc2ccc(O)cc2)NC(=O)[C@H](CCCNC(=N)N)NC(=O)[C@H](CCCNC(=N)N)NC(=O)[C@H]([C@@H](C)CC)NC1=O [compound 408]', 'transferrin receptor (hTfR) (Homo sapiens, UniProt P02786)', '7.00 to 9.00'),
  ('CC[C@H](C)[C@@H]1NC(=O)[C@H](Cc2ccc(OC)cc2)NC(=O)[C@H](Cc2ccc(O)cc2)NC(=O)[C@H](CC(N)=O)NC(=O)[C@H](Cc2c[nH]c3ccccc23)N(C)C(=O)[C@H](C(C)C)NC(=O)[C@H](Cc2cccc(Cl)c2)N(C)C(=O)[C@H](C(C)C)NC(=O)[C@H](C)NC(=O)CSC[C@@H](C(N)=O)NC(=O)[C@H](Cc2ccc(O)cc2)N(C)C(=O)[C@H](Cc2ccccc2)NC(=O)[C@@H](CCCNC(=N)N)NC(=O)[C@H](CCCNC(=N)N)NC(=O)[C@H]([C@@H](C)CC)NC1=O [compound 397]', 'transferrin receptor (hTfR) (Homo sapiens, UniProt P02786)', '7.00 to 9.00'),
  ('CC[C@H](C)[C@@H]1NC(=O)[C@H](Cc2ccc(OC)cc2)NC(=O)[C@H](Cc2ccc(O)cc2)NC(=O)[C@H](CC(N)=O)NC(=O)[C@H](Cc2c[nH]c3ccccc23)N(C)C(=O)[C@H](C(C)C)NC(=O)[C@H](Cc2cccc(Cl)c2)N(C)C(=O)[C@H](C(C)C)NC(=O)[C@H](C)NC(=O)CSC[C@@H](C(N)=O)NC(=O)[C@H](Cc2ccc(O)cc2)N(C)C(=O)[C@H](Cc2ccccc2)NC(=O)[C@@H](CCCNC(=N)N)NC(=O)[C@H](CCC(=O)NCCOCCOCCOCCOCCOCCOCCOCCOC)NC(=O)[C@H]([C@@H](C)CC)NC1=O [compound 363]', 'transferrin receptor (hTfR) (Homo sapiens, UniProt P02786)', '7.00 to 9.00');

Query molecule follows.
Input CC[C@H](C)[C@@H]1NC(=O)[C@H](Cc2ccc(OC)cc2)NC(=O)[C@H](Cc2ccc(O)cc2)NC(=O)[C@H](CC(N)=O)NC(=O)[C@H](Cc2c[nH]c3ccccc23)N(C)C(=O)[C@H](C(C)C)NC(=O)[C@H](Cc2cccc(Cl)c2)N(C)C(=O)[C@H](C(C)C)NC(=O)[C@H](C)NC(=O)CSC[C@@H](C(=O)N[C@H](CCC(=O)O)C(=O)O)NC(=O)[C@H](Cc2ccc(O)cc2)N(C)C(=O)[C@H](Cc2ccccc2)NC(=O)[C@H](CCCNC(=N)N)NC(=O)[C@H](CCCNC(=N)N)NC(=O)[C@H]([C@@H](C)CC)NC1=O [compound 387] . Output pKd: 7.00 to 9.00
